- assayProtocol: Stability in rat plasma (LC/MS)
- Type: in vitro ADME
- particulars: 37° C., 2 hours, read-out: recovery rate in rat plasma after 2 hours
Where a SMILES comes first, the peptide text is derived from it. [ ]: non-standard residue; d: D form. The star is where a group is joined. Propanoyl(3-cHex) = O=C(CCC1CCCCC1)*; Dab = NCC[C@H](N)C(=O)O
reportedMetric: recovery at 2 hours, 50 μg/mL

Request the reported recovery at 2 hours, 50 μg/mL associated with CC(C)C[C@H](NC(=O)CCC1CCCCC1)C(=O)N[C@@H](CC(C)C)C(=O)N[C@@H](CCN)C(=O)N1CCC[C@H]1C(=O)N[C@@H](CCCNC(=N)N)C(=O)N[C@@H](CC(N)=O)C(N)=O [CPN-219] ({Propanoyl(3-cHex)}-LL[Dab]PRN-NH2)
≥ 80%

====

- assayProtocol: Stability in rat plasma (LC/MS)
- Assay type: in vitro ADME
- particulars: 37° C., 2 hours, read-out: recovery rate in rat plasma after 2 hours
Where a SMILES comes first, the peptide text is derived from it. [ ]: non-standard residue; d: D form. The star is where a group is joined. Propanoyl(3-cHex) = O=C(CCC1CCCCC1)*; Dap = NC[C@H](N)C(=O)O
reportedMetric: recovery at 2 h, 50 μg/mL

Request the reported recovery at 2 h, 50 μg/mL associated with CC(C)C[C@H](NC(=O)CCC1CCCCC1)C(=O)N[C@@H](CC(C)C)C(=O)N[C@@H](CN)C(=O)N1CCC[C@H]1C(=O)N[C@@H](CCCNC(=N)N)C(=O)N[C@@H](CC(N)=O)C(N)=O [CPN-116] ({Propanoyl(3-cHex)}-LL[Dap]PRN-NH2)
≤ 3%
